Target: T1, mouse CTGF (Abbexa) (mouse, UniProt P29268 26-348, limits assumed)
T1 construct: also called Murine CTGF; mCTGF
T1 sequence (looked up): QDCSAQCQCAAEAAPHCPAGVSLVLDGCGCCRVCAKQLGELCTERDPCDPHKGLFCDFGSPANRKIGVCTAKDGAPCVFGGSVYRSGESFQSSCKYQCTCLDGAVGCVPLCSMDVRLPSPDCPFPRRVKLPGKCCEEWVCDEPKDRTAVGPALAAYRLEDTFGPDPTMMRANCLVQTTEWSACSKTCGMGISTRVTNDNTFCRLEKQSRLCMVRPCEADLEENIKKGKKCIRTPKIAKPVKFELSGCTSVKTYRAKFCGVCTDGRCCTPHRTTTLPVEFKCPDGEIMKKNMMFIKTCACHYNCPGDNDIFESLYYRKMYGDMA
Assay: SPR (Biacore)
reported property: pKd
Answers are plain numbers, as −log10 of the molar value.

[ask] # pKd lookup, item lipocalin mutein of SEQ ID NO: 11 (designed binder, also called hNGAL mutein; not shown: C-terminal His-tag) QDSTSDLIPAPPLSKVPLQQNFQDNQFQGKWYVVGLAGNAILREDKQPAKMFATIYELKEDKSYDVTSVRFEAKSCSYTSKTFVPGSQPGEFTAGNIKSAPGQTSTLVRVVSTNYNQHAMVFFKHVSQNRETFVITLYGRTKELTSELKENFIRFSKSLGLPENHIVFPVPIDQCIDG
[reply] 8.99
